Listed here are compounds together with their documented Percent Effect.
System: Trypanosoma brucei
experiment description: Trypanosoma brucei 72 hour study
Format: functional, organism-based
Parameters: scale not given: in the data most compounds retested in dose-response had high values
condition context: 30.3 µM; […]
The campaign covered roughly 66,000 compounds. About 960 (1.5%) showed an effect of 50% or more. Many of the other results were omitted from the sample, so strong results are more common in it than they were.
Supply the numeric figure in %, leaving out any unit text.

compound | property name | test value
COc1cc(N2CCC3(CCN(Cc4csc(C)n4)C3=O)C2)ncn1.O=C(O)C(F)(F)F (configuration not stated) | Percent Effect | -84.03

# value of Percent Effect, Trypanosoma brucei, item `COc1ccc(CN2CCc3nnc(COCCN(C)C)n3CC2)cc1.O=C(O)C(F)(F)F.O=C(O)C(F)(F)F` = -2.661

# value of Percent Effect, Trypanosoma brucei, item NCC1CCN(C2CCN(c3ccc(-c4ccco4)cc3)CC2)C1 (configuration not stated) = 100.4

# value of Percent Effect, Trypanosoma brucei, item `O=C(O)C(F)(F)F.O=C1COC2(CCN(CC3CC3)CC2)CN1c1ccsc1` = -336

# value of Percent Effect, Trypanosoma brucei, item `CC1(C)CN(Cc2csc(CS(C)(=O)=O)n2)Cc2ccccc21` = 100.6

# value of Percent Effect, Trypanosoma brucei, item `COc1cc(C)c(S(=O)(=O)NCc2cccnc2N(C)C)c(C)c1` = 6.422

# value of Percent Effect, Trypanosoma brucei, item `O=C(NCC1CC1)[C@@H]1CCO[C@@H]2CCN(Cc3ccsc3)C[C@H]21.O=C(O)C(F)(F)F` = -183.8

# value of Percent Effect, Trypanosoma brucei, item O[C@]12CC[C@H](CC1)N(Cc1ccc(F)cc1)C2CN1CCOCC1 (some centres not stated) = -19.63

# value of Percent Effect, Trypanosoma brucei, item `CNC1CCN(C2CCN(c3ccc(-c4ccco4)cc3)CC2)CC1` = 100.1

# value of Percent Effect, Trypanosoma brucei, item Cc1nc(C2CN(Cc3ccccc3C)CCO2)no1 (configuration not stated) = -23.18

# value of Percent Effect, Trypanosoma brucei, item `Cn1cc(CCC(=O)N2C[C@@H]3CC[C@H](C2)N(Cc2ccccn2)C3)cn1` = 7.516

# value of Percent Effect, Trypanosoma brucei, item `NC1CCN(C2CCN(c3ccc(-c4ccco4)cc3)CC2)CC1` = -49.5

# value of Percent Effect, Trypanosoma brucei, item `c1ccc(N2CCC(c3ccncc3)CC2)cc1` = 0.5256

# value of Percent Effect, Trypanosoma brucei, item `Cc1nc(-c2ccc(F)c(F)c2)cc(C2CCNCC2)n1.Cl` = 101.1

# value of Percent Effect, Trypanosoma brucei, item `Cc1nc(-c2ccccc2)cc(C2CCNCC2)n1.Cl` = -24.18

# value of Percent Effect, Trypanosoma brucei, item `O=C1C[C@H]2CC[C@@H](CN1)N2C(=O)CCc1ccsc1` = 5.085

# value of Percent Effect, Trypanosoma brucei, item CN1CCCCC1c1ncc2c(n1)CCN(Cc1ccc(F)cc1)C2 (configuration not stated) = 42.96

* * *

System: Trypanosoma brucei
experiment description: Trypanosoma brucei 72 hour study
Assay type: functional, organism-based
Set-up: scale not given: in the data most compounds retested in dose-response had high values
condition context: 30.3 µM; […]
Out of some 66,000 compounds screened, about 960 (1.5%) showed an effect of 50% or more. What follows is part of a selection rich in strong results, with near analogues and random picks from the rest.
Listed here are molecules together with their documented Percent Effect.
Supply the numeric figure in %, leaving out any unit text.

molecule | property name | display unit | test value
Cn1nc(CN2CCC(c3ccncc3)CC2)c2c(Cl)cccc21 | Percent Effect | % | 31.87

Record CCc1c(C)nc2cc(C3CCN(CCc4ccccc4)C3)nn2c1O (stereo not given) . Reported Percent Effect: 58.63

Record `Cc1nn(C(C)C)c(C)c1CN1CCN(C2CCCCC2)C(=O)C1.O=C(O)CC(O)(CC(=O)O)C(=O)O` . Reported Percent Effect: -4.336

Record `O=C(O)C(F)(F)F.O=C(c1ccoc1)N1C[C@@H]2OCCN(c3ncccn3)[C@@H]2C1` . Reported Percent Effect: -8.279

Record Cl.OC1CCN(c2cncc(CCC3CCCN3)n2)CC1 (stereo not given) . Reported Percent Effect: -6.285

Record CCc1c(C)nc2cc(C3CCN(Cc4cccnc4)C3)nn2c1O (stereo not given) . Reported Percent Effect: 7.415

Record `OC[C@H]1CCCN1c1nccc(-c2c[nH]nc2C2CCCCC2)n1` . Reported Percent Effect: 98.96

* * *

Tested on: Trypanosoma brucei
experiment description: Trypanosoma brucei 72 hour study
Type: functional, organism-based
Design: scale not given: in the data most compounds retested in dose-response had high values
condition context: 30.3 µM; […]
About 960 (1.5%) of roughly 66,000 compounds showed an effect of 50% or more. Many of the other results were omitted from the sample, so strong results are more common in it than they were.
The following ranges of Percent Effect define the classes used here: zone 1 (below -20%), zone 2 (-20% to below 10%), zone 3 (10% or more)

# count of solved cases: 5
molecule | class label
Cc1nnc(CN2CCCC(CCc3ccccc3C(F)(F)F)C2)o1 (stereo unspecified) | zone 3
Fc1cccc(Cc2cncc(C3CCCN3C3CCOCC3)n2)c1 (stereo unspecified) | zone 2
CC(C)CN1CCC2(CCN(Cc3ccsc3)CC2)C1=O | zone 2
Cl.O=C(c1cc2c(s1)CCCC2)N1CCc2nc(C3CCCN3)ncc2C1 (stereo unspecified) | zone 2
CC1N(c2cnn(C)c2)C(=O)COC12CCN(c1ccccn1)CC2.O=C(O)C(F)(F)F (stereo unspecified) | zone 2

Class? Entry: `Cc1ccc(SCCCNC(=O)c2cn([C@H]3CC[C@@H](N)CC3)nn2)cc1`
zone 3

Class? Entry: `CCN(CCSc1ccccc1)C(=O)c1cn([C@H]2CC[C@@H](N)CC2)nn1`
zone 1

Class? Entry: `CN(CCCOc1ccccc1Cl)C(=O)CN1C[C@@H]2CC[C@H](CC1=O)N2`
zone 1

Class? Entry: CN(C)S(=O)(=O)N1CCCC(c2cccc(Cc3ccccc3F)n2)C1 (stereo unspecified)
zone 3

Class? Entry: c1ccc(Cc2cncc(C3CCCN3C3CCOCC3)n2)cc1 (stereo unspecified)
zone 2

Class? Entry: `Cl.Nc1nc(Nc2ccccc2)cc(N2CCNCC2)n1`
zone 2

* * *

System: Trypanosoma brucei
experiment description: Trypanosoma brucei 72 hour study
Type: functional, organism-based
Set-up: scale not given: in the data most compounds retested in dose-response had high values
condition context: 30.3 µM; […]
In all, about 66,000 compounds went through this assay and about 960 (1.5%) showed an effect of 50% or more. For the sample, strong results were picked, then their nearest neighbours and some compounds at random.
property name: Percent Effect (%)
Supply the numeric figure in %, leaving out any unit text.

compound | measurement target | property name | test value
CC(C)N(C)Cc1cnc2n1CCN(Cc1ccsc1)C2.O=C(O)C(F)(F)F.O=C(O)C(F)(F)F | Trypanosoma brucei | Percent Effect | -0.145
O=S(=O)(C1CC1)N1Cc2nccn2CC(Cn2cncn2)C1 (centres undefined) | Trypanosoma brucei | Percent Effect | -41.46
Cc1noc(NCc2ccc(F)cc2)n1 | Trypanosoma brucei | Percent Effect | 55.37

Record Cc1noc(C)c1CNCC1Cn2nncc2CO1.O=C(O)C(F)(F)F (centres undefined) . Reported Percent Effect: -105.3

Record `Cc1cc(-c2cnc(NC3CC3)nc2-c2ccco2)on1` . Reported Percent Effect: 20.38

Record `Cc1cc(-c2cnc(NC3CCCC3)nc2-c2ccc(C)o2)on1` . Reported Percent Effect: 59.7

Record `Cc1cccc(CN2C(=O)CCC23CCN(c2ccccn2)CC3)n1.O=C(O)C(F)(F)F.O=C(O)C(F)(F)F` . Reported Percent Effect: -36.28

* * *

System: Trypanosoma brucei
experiment description: Trypanosoma brucei 72 hour study
Assay type: functional, organism-based
Set-up: scale not given: in the data most compounds retested in dose-response had high values
condition context: 30 µM; 30.03 µM
The campaign covered roughly 66,000 compounds. About 960 (1.5%) showed an effect of 50% or more. For the sample, strong results were picked, then their nearest neighbours and some compounds at random.
property name: Percent Effect (%)
Supply the numeric figure in %, leaving out any unit text.

Solved cases below.
compound | Percent Effect (%)
COc1ccc(N2Cc3nc(=O)n(Cc4cccc(F)c4)n3C2=O)cc1 | -5.99
O=C(O)C1CCCN1c1nc(-c2ccc(Cl)cc2)cc(C(F)(F)F)n1 (stereo unspecified) | -38.97
Cc1cc(NC(C)c2csc(C)n2)n2nc(C)c(C)c2n1 (stereo unspecified) | -27.53

Record `COc1cccc(CNCc2c(C(C)C)nn(C)c2N(C)C)c1OC` . Reported Percent Effect: 101.8

Record `CC(C)n1c(=O)nc2n1C(=O)N(c1ccccc1)C2` . Reported Percent Effect: 14.82

* * *

Listed here are compounds together with their documented Percent Effect.
Tested on: Trypanosoma brucei
experiment description: Trypanosoma brucei 72 hour study
Assay type: functional, organism-based
Design: scale not given: in the data most compounds retested in dose-response had high values
condition context: 30.3 µM; […]
Out of some 66,000 compounds screened, about 960 (1.5%) showed an effect of 50% or more. This is one part of a sample in which strong results are shown more often than they occur.

Solved cases below.
compound | measurement target | Percent Effect
COc1cc(NC(=O)c2ccc(CN3CC[C@H](O)C3)cc2)cc(OC)c1 | Trypanosoma brucei | 58.59%
Cc1cc(C(=O)N2CCc3nnc(N)cc3C2)c(C)n1-c1ccccc1 | Trypanosoma brucei | -29.37%
O=C(O)C(F)(F)F.O=C1N(CC2CCCC2)CCC12CCN(c1ncc(F)cn1)CC2 | Trypanosoma brucei | -27.57%
O=C(O)C(F)(F)F.O=C(c1cscn1)N1CCc2c(COCC3CC3)cncc2C1 | Trypanosoma brucei | -26.29%
CCCN1C[C@H]2CC[C@@H]1CN(Cc1cccc(O)c1)C2 | Trypanosoma brucei | -137.4%
O=C(O)C(F)(F)F.O=C(O)C(F)(F)F.c1csc(CN2Cc3nc(CN4CCCC4)oc3C2)c1 | Trypanosoma brucei | -24.4%
Cn1ccnc1C(=O)N1CCC2(CCN2c2ncccn2)C1.O=C(O)C(F)(F)F (stereo not given) | Trypanosoma brucei | -37.97%
FC1(F)CCN(Cc2ccccn2)CC12CCN(c1ncccn1)C2.O=C(O)C(F)(F)F (stereo not given) | Trypanosoma brucei | -64.14%

Record `Oc1cccc(CN2C[C@H]3CC[C@@H]2CN(Cc2ccc(F)cc2)C3)c1` . Reported Percent Effect: 102.6%

Record `Cc1cncc(NC(=O)c2ccc(CN3CC[C@H](O)C3)cc2)c1` . Reported Percent Effect: -21.22%
